Target: recombinant soluble tissue factor and recombinant human factor VIIa (TF-VIIa) (Homo sapiens)
Sequence (P08709 213-466 limits assumed): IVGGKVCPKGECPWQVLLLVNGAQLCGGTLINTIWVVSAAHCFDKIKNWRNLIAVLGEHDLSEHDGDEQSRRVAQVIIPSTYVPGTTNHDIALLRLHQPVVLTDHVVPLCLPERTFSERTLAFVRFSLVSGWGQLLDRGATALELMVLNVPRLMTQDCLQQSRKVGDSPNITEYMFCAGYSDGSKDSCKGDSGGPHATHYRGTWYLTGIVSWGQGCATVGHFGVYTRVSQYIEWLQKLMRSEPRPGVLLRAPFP
Sequence (P08709 61-212 limits assumed): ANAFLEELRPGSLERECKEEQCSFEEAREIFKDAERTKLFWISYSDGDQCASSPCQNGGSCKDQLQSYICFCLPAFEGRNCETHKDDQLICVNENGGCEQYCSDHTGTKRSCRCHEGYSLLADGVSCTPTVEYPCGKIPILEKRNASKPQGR
Sequence (P13726 33-251 partner limits assumed): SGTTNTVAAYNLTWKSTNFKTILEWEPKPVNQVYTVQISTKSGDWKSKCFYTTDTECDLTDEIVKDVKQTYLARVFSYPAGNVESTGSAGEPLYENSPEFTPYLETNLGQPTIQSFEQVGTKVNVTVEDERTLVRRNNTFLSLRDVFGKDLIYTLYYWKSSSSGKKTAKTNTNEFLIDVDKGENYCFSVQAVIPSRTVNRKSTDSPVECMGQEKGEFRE
Assay: TF-VIIa Assay
Observable: pIC50
pIC50 here is simply -log10 of the concentration when that concentration is written in mol/L.

Which measured pIC50 value corresponds to N=C(N)c1ccc(CNC(=O)Cc2c(-c3cccc(N)c3)ccc(NC3CCC3)[n+]2[O-])cc1 [Example 2] ? 7.15

Request: CC(C)Nc1ccc(-c2cc(N)cc(N)c2)c(CC(=O)NCc2ccc(C(=N)N)cc2)[n+]1[O-] [Example 7] 7.08

Okay, and CC(C)Nc1ccc(-c2csc3ccccc23)c(CC(=O)NCc2ccc(C(=N)N)cc2)[n+]1[O-] [Example 11] ? 5.25

What about CC(C)Nc1ccc(-c2cccc(CO)c2)c(CC(=O)NCc2ccc(C(=N)N)cc2)[n+]1[O-] [Example 9] ? 5.76

Please give the result for CC(C)Nc1ccc(-c2ccccc2Oc2ccccc2)c(CC(=O)NCc2ccc(C(=N)N)cc2)[n+]1[O-] [Example 6] too. 5.16

Try the compound CC(C)Nc1ccc(-c2ccccc2CN2C(=O)c3ccccc3C2=O)c(CC(=O)NCc2ccc(C(=N)N)cc2)[n+]1[O-] [Example 13] 5.85

// query: CC(=O)c1cccc(-c2ccc(NC(C)C)[n+]([O-])c2CC(=O)NCc2ccc(C(=N)N)cc2)c1 [Example 10] 5.77

====

Molecular target: Human thrombin (Homo sapiens, UniProt P00734)
What IC50 was measured for each of the following?
Please give a number only; it is taken to be in µM.

Reported IC50 for Human thrombin (Homo sapiens, UniProt P00734), given CC(C)Nc1ccc(-c2csc3ccccc23)c(CC(=O)NCc2ccc(C(=N)N)cc2)[n+]1[O-] ? 39.5

Queued: CC(C)Nc1ccc(-c2cccc(N)c2)c(CC(=O)NCc2ccc(C(=N)N)cc2)[n+]1[O-] 9.9

Another compound to look at: CC(C)Nc1ccc(-c2ccccc2CN2C(=O)c3ccccc3C2=O)c(CC(=O)NCc2ccc(C(=N)N)cc2)[n+]1[O-] 12

Also, CC(C)Nc1ccc(-c2cccc(CO)c2)c(CC(=O)NCc2ccc(C(=N)N)cc2)[n+]1[O-] please. 6.6

Check CC(C)Nc1ccc(/C=C/c2ccccc2)c(CC(=O)NCc2ccc(C(=N)N)cc2)[n+]1[O-] too. 29

====

Answer each item with its documented pIC50.
Target: recombinant soluble tissue factor and recombinant human factor VIIa (TF-VIIa) (Homo sapiens)
Test: TF-VIIa Assay
On this scale, pIC50 is minus log10 of a concentration expressed in M (mol/L).

# input compound: CC(C)Nc1ccc(-c2ccccc2OCc2ccccc2)c(CC(=O)NCc2ccc(C(=N)N)cc2)[n+]1[O-] [Example 5] ; wanted: its pIC50 5.62

Check CC(C)Nc1ccc(-c2cc(N)cc(C(=O)O)c2)c(CC(=O)NCc2ccc(C(=N)N)cc2)[n+]1[O-] [Example 3] too. 6.14

Also need N=C(N)c1ccc(CNC(=O)Cc2nc(NC3CCC3)ccc2-c2cccc(N)c2)cc1 [Example 1] , thanks. 5.61

Item: CC(C)Nc1ccc(-c2cccc(N)c2)c(CC(=O)NCc2ccc(C(=N)N)cc2)[n+]1[O-] [Example 14] 6.81

====

Quick note: these are pIC50 numbers for system: Trypsin (type 1× from porcine pancreas) (Sus scrofa, UniProt P00761)
Sequence (P00761 9-231): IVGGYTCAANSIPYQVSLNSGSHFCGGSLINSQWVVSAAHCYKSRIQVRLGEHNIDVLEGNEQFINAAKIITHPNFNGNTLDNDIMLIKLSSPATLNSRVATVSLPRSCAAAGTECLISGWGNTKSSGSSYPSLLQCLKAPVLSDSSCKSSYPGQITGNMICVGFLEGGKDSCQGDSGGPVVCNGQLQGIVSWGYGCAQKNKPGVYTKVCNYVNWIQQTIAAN
# log scale: pIC50 equals minus log10 of the concentration in mol/L

Entry under review: CC(C)Nc1ccc(-c2ccccc2OCc2ccccc2)c(CC(=O)NCc2ccc(C(=N)N)cc2)[n+]1[O-] [Example 5] . Reported pIC50? 7.00

Try this compound too: CC(C)Nc1ccc(-c2cc(N)cc(C(=O)O)c2)c(CC(=O)NCc2ccc(C(=N)N)cc2)[n+]1[O-] [Example 3] 6.80

Queued: N=C(N)c1ccc(CNC(=O)Cc2c(-c3cccc(N)c3)ccc(NC3CCC3)[n+]2[O-])cc1 [Example 2] 7.70

Same for CC(C)Nc1ccc(-c2ccccc2CN2C(=O)c3ccccc3C2=O)c(CC(=O)NCc2ccc(C(=N)N)cc2)[n+]1[O-] [Example 13] 6.92

All figures here come from patent US20040068113A1.
